Exercise: for every item that follows, state its recorded CC50.
assay: In vitro L929 cytotoxicity assay (CTG); assay type: cell-based; settings: mouse, L929 cells; read-out: Cytotox (CTG) CC50

[[record]]
molecule = "CCC(=O)O[C@]1(C(=O)CCl)[C@@H](C)C[C@H]2[C@@H]3CCC4=CC(=O)C=C[C@]4(C)[C@@]3(F)[C@@H](O)C[C@@]21C [Clobetasol propionate]"
observed_value = "> 30 µM"

[[record]]
molecule = "C[C@@H]1C[C@H]2[C@@H]3CCC4=CC(=O)C=C[C@]4(C)[C@@]3(F)[C@@H](O)C[C@]2(C)[C@@]1(O)C(=O)CO"
observed_value = "> 50 µM"

[[record]]
molecule = "CCCC1O[C@@H]2C[C@H]3[C@@H]4CCC5=CC(=O)C=C[C@]5(C)[C@H]4[C@@H](O)C[C@]3(C)[C@]2(C(=O)CO)O1 (stereo partly shown) [Budesonide]"
observed_value = "> 30 µM"

[[record]]
molecule = "OCCN(CCO)c1nc(N2CCCCC2)c2nc(N(CCO)CCO)nc(N3CCCCC3)c2n1"
observed_value = "> 30 µM"

[[record]]
molecule = "CC(=O)[C@@]1(O)CC[C@H]2[C@@H]3C[C@H](C)C4=CC(=O)C=C[C@]4(C)[C@@]3(F)[C@@H](O)C[C@@]21C"
observed_value = "> 5 µM"


Value sought for every listed molecule: CC50.
1. CC1(C)O[C@@H]2C[C@H]3[C@@H]4CCC5=CC(=O)CC[C@]5(C)[C@@]4(F)[C@@H](O)C[C@]3(C)[C@]2(C(=O)CCl)O1 [Halcinonide]
2. CC(C)CC[C@@H](O)[C@@H](C)[C@H]1CC[C@H]2[C@@H]3CC=C4C[C@@H](O)CC[C@]4(C)[C@H]3CC[C@]12C [22(r)-hydroxy-cholesterol]

RESULT:
1: > 10 µM; 2: > 12 µM

* * *

test system: primary human mesenchymal stem cells (MSCs); assay: Osteoinductive (OI) alkaline phosphatase (ALP) assay, dose response, ALP normalised to DNA; assay type: cell-based; details: primary human MSCs; exposure over 6 days; read-out: OI Assay (ALP) EC50
Counter-ions that a name gives are not always drawn.
measurement name: EC50

The following compounds have reported results that may help.
[[record]]
compound = "C=C(CC[C@]12O[C@H](C(=O)O)[C@@](O)(C(=O)O)[C@](C(=O)O)(O1)[C@H](OC(=O)/C=C/[C@@H](C)C[C@@H](C)CC)[C@H]2O)[C@@H](OC(C)=O)[C@H](C)Cc1ccccc1"
observed_value = "0.715 µM"

[[record]]
compound = "O=C(O)c1ccc(CCN2CCN(C/C=C/c3ccc(Cl)cc3)CC2)cc1 [bm15766 sulfate]"
observed_value = "> 10 µM"

[[record]]
compound = "COC(=O)[C@H](CCSC)NC(=O)c1ccc(NC[C@@H](N)CS)cc1-c1ccccc1 [FTI-277 trifluoroacetate salt]"
observed_value = "> 12 µM"

[[record]]
compound = "COC(=O)[C@H](CC(C)C)NC(=O)c1ccc(NC[C@@H](N)CS)cc1-c1ccccc1"
observed_value = "> 12 µM"

[[record]]
compound = "C[C@H](CCCC(C)(C)O)[C@H]1CC[C@H]2[C@@H]3CC=C4C[C@@H](O)CC[C@]4(C)[C@H]3CC[C@]12C [25-hydroxy-cholestero]"
observed_value = "> 12 µM"

[[record]]
compound = "CC[C@H](CC[C@@H](C)[C@H]1CC[C@H]2[C@@H]3CC=C4C[C@@H](O)CC[C@]4(C)[C@H]3CC[C@]12C)C(C)C"
observed_value = "> 12 µM"

[[record]]
compound = "CC(=O)OCC(=O)[C@@]1(O)CC[C@H]2[C@@H]3CCC4=CC(=O)CC[C@]4(C)[C@@]3(F)[C@@H](O)C[C@@]21C [Fludrocotisone actetate]"
observed_value = "0.00412 µM"

[[record]]
compound = "CCCC(=O)Nc1ncnc2c1ncn2[C@@H]1O[C@@H]2COP(=O)(O)O[C@H]2[C@H]1OC(=O)CCC"
observed_value = "> 10 µM"


Value sought for every listed compound: EC50.
1. CC(C)CCC[C@](C)(O)[C@H]1CC[C@H]2[C@@H]3CC=C4C[C@@H](O)CC[C@]4(C)[C@H]3CC[C@@]21C [20a-hydroxy-cholesterol]
2. CCC(=O)O[C@]1(C(=O)SCF)[C@H](C)C[C@H]2[C@@H]3C[C@H](F)C4=CC(=O)C=C[C@]4(C)[C@@]3(F)[C@@H](O)C[C@@]21C [Fluticasone propionate]

RESULT:
> 12 µM
6.5e-06 µM
